Each recorded value in this set is attributed to patent US20250197387A1.

target: BCL-XL (Homo sapiens, UniProt Q07817); construct: endogenous in cells; host or cells: MOLT-4; assay: BCL-XL degradation assay, western blot in MOLT-4 cells, 16 h; type: cell-based; settings: western blot, MOLT-4 cells, 16 h; read-out: Bcl-xL WB in MOLT-4 degradation 16 h: Average Dmax %
Sequence (Q07817 whole entry): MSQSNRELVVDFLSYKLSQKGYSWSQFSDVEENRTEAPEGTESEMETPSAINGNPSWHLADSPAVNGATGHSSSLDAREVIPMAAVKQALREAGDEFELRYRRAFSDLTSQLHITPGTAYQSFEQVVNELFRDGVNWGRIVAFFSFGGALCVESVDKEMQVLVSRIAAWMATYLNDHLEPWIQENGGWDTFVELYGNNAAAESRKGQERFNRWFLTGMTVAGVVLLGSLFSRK
property: Dmax

item.smiles	property	observed.value
Cc1cc(N2CCC(C(=O)N[C@H](C(=O)N3C[C@H](O)C[C@H]3C(=O)N[C@@H](C)c3ccc(-c4scnc4C)cc3)C(C)(C)C)CC2)ccc1S(=O)(=O)NC(=O)c1nc(N2CCc3cccc(C(=O)Nc4nc5ccccc5s4)c3C2)ccc1-c1cnn(CC2CCCCC2)c1C	Dmax	> 75%
Cc1ncsc1-c1ccc([C@H](C)NC(=O)[C@@H]2C[C@@H](O)CN2C(=O)[C@@H](NC(=O)CCCC(=O)N2CCN(CCCC3(Cn4ncc(-c5ccc(N6CCc7cccc(C(=O)Nc8nc9ccccc9s8)c7C6)nc5C(=O)O)c4C)CCCCC3)CC2)C(C)(C)C)cc1	Dmax	50 to 75%
Cc1ncsc1-c1ccc([C@H](C)NC(=O)[C@@H]2C[C@@H](O)CN2C(=O)[C@@H](NC(=O)CCCCCCCCNC(=O)c2nc(N3CCc4cccc(C(=O)Nc5nc6ccccc6s5)c4C3)ccc2-c2cnn(CC3CCOCC3)c2C)C(C)(C)C)cc1	Dmax	> 75%

Form field Dmax, entry `Cc1ncsc1-c1ccc([C@H](C)NC(=O)[C@@H]2C[C@@H](O)CN2C(=O)[C@@H](NC(=O)CCCC(=O)N(C)CC#Cc2cccc(F)c2OCCCc2sc(N3CCc4cccc(C(=O)Nc5nc6ccccc6s5)c4C3)nc2C(=O)O)C(C)(C)C)cc1` : 50 to 75%
